All values here come from the emibetuzumab library of Makowski et al. (2022).

B1: VH:VL chains; a variant is named by its letters at X, in order (parent)
chain 1: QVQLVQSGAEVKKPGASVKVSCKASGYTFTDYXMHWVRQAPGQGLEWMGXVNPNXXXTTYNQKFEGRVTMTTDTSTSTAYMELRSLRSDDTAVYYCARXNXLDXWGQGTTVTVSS
chain 2: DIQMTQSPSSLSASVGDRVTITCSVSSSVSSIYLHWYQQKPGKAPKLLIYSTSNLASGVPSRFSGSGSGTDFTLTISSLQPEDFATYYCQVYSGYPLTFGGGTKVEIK

- Variants of: B1
- test_description: yeast display scFab, FACS + sequencing
quantity_name: non-specific binding call

As a guide, the following entries are already answered.
mutation_id | test_result
DRGGDSLD | no binding
FERRAFGY | binds
YARADDAS | no binding
YRRRGSVD | binds
FRGESSWD | binds
YRAGGDAD | binds

Look up and state reported non-specific binding call for FKATTVVD chain 1 S88F
binds

Look up and state reported non-specific binding call for "YAGRGDLA"
no binding

Look up and state reported non-specific binding call for "FRAGGSGA"
binds

Look up and state reported non-specific binding call for "VAGGDALD"
no binding

Look up and state reported non-specific binding call for "FEAESYGV"
binds
